- Tested on: HUVEC
- assay-procedure: Calcium imaging, intracellular [Ca2+]i increase in HUVEC
- Type: cell-based, human
- condition-description: Homo sapiens, Fluo4 fluorescence, 0.01-5 μmol/L, read-out: EC50 of [Ca2+]i increase (F1max/F0)
value-type: EC50 (nM)
Give the number; nM is assumed, so skip it.

## Input Supply measured EC50 of CCC=CCC=CCC=CCC=CCC(O)C1CCCC(=O)O1 (racemic) [5,6-diHETE lactone] in your reply.
## Output 9.94
